# EC50 per record follows
# Test system: caspase cascade, human breast cancer cell line ZR-75-1
# assay-procedure: Caspase cascade activation assay (Example 90), ZR-75-1
# Type: cell-based
# particulars: Homo sapiens, ZR-75-1; 24 h incubation; sigmoidal dose-response; read-out: ZR-75-1 EC50 (caspase activation potency)
Please state the value followed by its unit.

Example entries begin here.
| compound | result-value |
| --- | --- |
| CC(C)=CCCC1(C)C=Cc2c(O)c3c(c(CC=C(C)C)c2O1)OC12C(=CC4CC1C(C)(C)OC2(C/C=C(/C)C(=O)N1CCCCC1)C4=O)C3=O (stereo not drawn) | 783 nM |
| CC(C)=CCCC1(C)C=Cc2c(O)c3c(c(CC=C(C)C)c2O1)OC12C(=CC4CC1C(C)(C)OC2(C/C=C(/C)C(=O)N1CCN(C)CC1)C4=O)C3=O (stereo not drawn) | 2050 nM |

Would you kindly look at the next entry?
Which EC50 value is on record for CC(C)=CCC/C(C)=C/Cc1c(O)c(CC=C(C)C)c2c(c1O)C(=O)C1=CC3CC4C(C)(C)OC(C/C=C(/C)C(=O)O)(C3=O)C14O2 (stereo not drawn) ?
1160 nM

----------
# Test system: PC-3 cells
# assay-procedure: Inhibition of cell proliferation (GI50) and cell death (LC50), PC-3
# Format: cell-based
# particulars: Homo sapiens, PC-3, 48 h; read-out: GI50 (dose for 50% inhibition of cell proliferation)
# Protocol: T47D, ZR-75-1, PC-3, human prostate cancer cell line DU-145, human non-small cell lung cancer cell line A-549, human small cell lung cancer cell line SHP-77, HL-60 and MRC-5 cells were grown and harvested as in Example 90. […] This determines the possible background absorbance of the test compounds. No absorbance for gambogic acid or its analogs or derivatives was found at 490 nm. After the 2-4 h incubation, the samples were read for absorbance as above (ATest). […]
quantity-name: GI50 (nM)
Use nM as the unit, but write only the number.

Give the measured GI50 of CC(C)=CCC/C(C)=C/Cc1c(O)c(CC=C(C)C)c2c(c1O)C(=O)C1=CC3CC4C(C)(C)OC(C/C=C(/C)C=O)(C3=O)C14O2 (stereo not shown) .
5000

Using the record for CC(C)=CCC/C(C)=C/Cc1c(O)c(CC=C(C)C)c2c(c1O)C(=O)C1=CC3CC4C(C)(C)OC(C/C=C(/C)C(=O)O)(C3=O)C14O2 (stereo not shown) , report its GI50.
3000

// lookup GI50 for COC(=O)/C(C)=C\CC12OC(C)(C)C3CC(C=C4C(=O)c5c(OC)c6c(c(CC=C(C)C)c5OC431)OC(C)(CCC=C(C)C)C=C6)C2=O (stereo not shown) [Example 6, Methyl-6-methoxy-gambogate]
500

Name the recorded GI50 for CC(C)=CCCC1(C)C=Cc2c(O)c3c(c(CC=C(C)C)c2O1)OC12C(=CC4CC1C(C)(C)OC2(C/C=C(/C)C(=O)N1CCCCC1)C4=O)C3=O (stereo not shown) .
500

----------
# System: caspase cascade
# assay-procedure: Caspase cascade activation assay (Example 90), MRC-5
# Type: cell-based, human
# particulars: human; 24 h incubation; sigmoidal dose-response; read-out: MRC-5 EC50 (caspase activation potency)
quantity-name: EC50 at 24 h
A complete answer gives the number and then names the unit.

Fill in the blank: the reported EC50 at 24 h of COC(=O)/C(C)=C\CC12OC(C)(C)C3CC(C=C4C(=O)c5c(O)c6c(c(CC=C(C)C)c5OC431)OC(C)(CCC=C(C)C)C=C6)C2=O (stereo not shown) [Example 4, Methyl Gambogate] is ____.
501 nM

----------
# assay-procedure: Inhibition of cell proliferation (GI50) and cell death (LC50), MRC-5
# Format: cell-based
# particulars: human; MRC-5, 48 h; read-out: LC50 (dose for 50% cell death)
quantity-name: CC50 (µM)
Please state the figure in µM; there is no need to write the unit.

Can you share its CC50? I mean this molecule: CC(C)=CCC/C(C)=C/Cc1c(O)c(CC=C(C)C)c2c(c1O)C(=O)C1=CC3CC4C(C)(C)OC(C/C=C(/C)C(=O)O)(C3=O)C14O2 (stereo not shown)
5

----------
# assay-procedure: Inhibition of cell proliferation (GI50) and cell death (LC50), MRC-5
# Assay type: cell-based
# particulars: human
quantity-name: CC50 at 48 h (nM)
Hi! Could you send only the number? It should be in nM, unit omitted.

Below, each entry is followed by its recorded CC50 at 48 h result.
| compound | display-unit | CC50 at 48 h |
| --- | --- | --- |
| COC(=O)/C(C)=C\CC12OC(C)(C)C3CC(C=C4C(=O)c5c(OC)c6c(c(CC=C(C)C)c5OC431)OC(C)(CCC=C(C)C)C=C6)C2=O (stereo not drawn) [Example 6, Methyl-6-methoxy-gambogate] | nM | 500 |
| CC(C)=CCCC1(C)C=Cc2c(O)c3c(c(CC=C(C)C)c2O1)OC12C(=CC4CC1C(C)(C)OC2(C/C=C(/C)C(=O)N1CCCCC1)C4=O)C3=O (stereo not drawn) [Example 5, Gambogyl Piperidine] | nM | 800 |

Then there is this compound:
Entry CC(C)=CCC/C(C)=C/Cc1c(O)c(CC=C(C)C)c2c(c1O)C(=O)C1=CC3CC4C(C)(C)OC(C/C=C(/C)C=O)(C3=O)C14O2 (stereo not drawn) [Example 3, Gambogenin] : reported CC50 at 48 h = ?
5000

----------
# System: caspase cascade, human breast cancer cell line T-47D
# assay-procedure: Caspase cascade activation assay (Example 90), T-47D
# Assay type: cell-based
# particulars: Homo sapiens, T47D; 24 h incubation; sigmoidal dose-response; read-out: T-47D EC50 (caspase activation potency)
Overview of recorded pEC50 for various compounds
Reminder that pEC50 is minus the log10 of a molar concentration.

Would you please look over these solved cases?
| compound | result-value |
| --- | --- |
| CC(C)=CCC/C(C)=C/Cc1c(O)c(CC=C(C)C)c2c(c1O)C(=O)C1=CC3CC4C(C)(C)OC(C/C=C(/C)C(=O)O)(C3=O)C14O2 (stereo not shown) | 6.51 |
| COC(=O)/C(C)=C\CC12OC(C)(C)C3CC(C=C4C(=O)c5c(OC)c6c(c(CC=C(C)C)c5OC431)OC(C)(CCC=C(C)C)C=C6)C2=O (stereo not shown) [Example 6, Methyl-6-methoxy-gambogate] | 5.55 |
| CC(C)=CCCC1(C)C=Cc2c(O)c3c(c(CC=C(C)C)c2O1)OC12C(=CC4CC1C(C)(C)OC2(C/C=C(/C)C(=O)N1CCCCC1)C4=O)C3=O (stereo not shown) | 6.68 |

Next item in the queue.
Given CC(C)=CCCC1(C)C=Cc2c(O)c3c(c(CC=C(C)C)c2O1)OC12C(=CC4CC1C(C)(C)OC2(C/C=C(/C)C(=O)N1CCN(C)CC1)C4=O)C3=O (stereo not shown) , state its recorded pEC50.
6.00

----------
# System: caspase cascade
# assay-procedure: Caspase cascade activation assay (Example 90), MRC-5
# Assay type: cell-based, human
# particulars: human; 24 h incubation; sigmoidal dose-response; read-out: MRC-5 EC50 (caspase activation potency)
quantity-name: EC50 (nM)
Unit nM implied. Number only.

Suppose we examine the molecule CC(C)=CCC/C(C)=C/Cc1c(O)c(CC=C(C)C)c2c(c1O)C(=O)C1=CC3CC4C(C)(C)OC(C/C=C(/C)C(=O)O)(C3=O)C14O2 (stereo not shown) ; what EC50 value has been reported?
1260

----------
# Test system: HL-60 cells
# assay-procedure: Inhibition of cell proliferation (GI50) and cell death (LC50), HL-60
# Type: cell-based
# particulars: HL-60, 48 h; read-out: LC50 (dose for 50% cell death)
quantity-name: CC50 (nM)
Only the number, expressed in nM, is required.

Consider the compound shown here: CC(C)=CCC[C@]1(C)C=Cc2c(O)c3c(c(CC=C(C)C)c2O1)O[C@]12C(=C[C@@H]4C[C@H]1C(C)(C)O[C@@]2(C/C=C(/C)C(=O)O)C4=O)C3=O What is its recorded CC50?
700

----------
Reported pEC50 values are given for each entry in this list.
# System: caspase cascade, human leukemia cancer cell line HL-60
# assay-procedure: Caspase cascade activation assay (Example 90), HL-60
# Format: cell-based
# particulars: Homo sapiens, HL-60; 24 h incubation; sigmoidal dose-response; read-out: HL-60 EC50 (caspase activation potency)
In simple prose, pEC50 is minus the logarithm base ten of a concentration in moles per litre.

| compound | result-value |
| --- | --- |
| CC(C)=CCCC1(C)C=Cc2c(O)c3c(c(CC=C(C)C)c2O1)OC12C(=CC4CC1C(C)(C)OC2(C/C=C(/C)C(=O)N1CCCCC1)C4=O)C3=O (centres unmarked) | 6.70 |

Consider the additional compound presented here.
Any idea what pEC50 was measured for CC(C)=CCC/C(C)=C/Cc1c(O)c(CC=C(C)C)c2c(c1O)C(=O)C1=CC3CC4C(C)(C)OC(C/C=C(/C)C(=O)O)(C3=O)C14O2 (centres unmarked) ?
6.47
